Origin of the recorded values: patent US20220177594A1

Target: T1, ANTIBODY EXPRESSION CONTROL
T1 construct: also called mouse anti-canine antibody (capture reagent of the expression control ELISA)
Experiment: SPR Biacore, expression control
VALUE_KIND: koff (s⁻¹)
Just the number please, in s⁻¹, no unit attached.

Take a look at these entries with their results.
Mu_19F07_VH (SEQ ID NO: 47)_Y33A (antibody, V domains shown) VH: EVKLVESEGGLVQPGSSMKLSCTASGFTFSDYAMAWVRQVPEKGLEWVANINYDGSSTYYLDSLKSRFIISRDNAKNILYLQMSSLKSEDTATYYCARGLTWDFDVWGTGTTVTVSS VL: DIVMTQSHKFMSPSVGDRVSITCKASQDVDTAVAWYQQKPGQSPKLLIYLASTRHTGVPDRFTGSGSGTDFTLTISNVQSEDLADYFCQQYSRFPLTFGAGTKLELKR = 6.08e-05
Mu_02D09_VH (SEQ ID NO: 31)_S52A (antibody, V domains shown) VH: EVQLVESGGGLVKPGGSLTLSCAASGFTFSDYGMHWLRQAPEKGLEWVAYIASGSRAVFFADTVKGRFTISRDNAKNTLFLQMTSLRSDDTAMYYCARDRYDGRGFAYWGQGTLVTVSA VL: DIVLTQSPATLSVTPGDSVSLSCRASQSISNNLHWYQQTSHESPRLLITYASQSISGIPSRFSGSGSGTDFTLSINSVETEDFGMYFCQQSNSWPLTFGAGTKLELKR = 7.55e-06

Now turn to the next binder.
Exam item: Look up koff of Mu_02D09_VL (SEQ ID NO: 33)_Q27A (antibody, V domains shown) VH: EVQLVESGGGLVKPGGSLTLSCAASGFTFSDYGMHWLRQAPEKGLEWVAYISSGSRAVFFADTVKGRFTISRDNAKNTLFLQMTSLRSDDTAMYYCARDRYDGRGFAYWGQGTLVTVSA VL: DIVLTQSPATLSVTPGDSVSLSCRASASISNNLHWYQQTSHESPRLLITYASQSISGIPSRFSGSGSGTDFTLSINSVETEDFGMYFCQQSNSWPLTFGAGTKLELKR and report it.
Marked response: 0.00019
